test system: PC-3 cells; assay: Cell viability (MTT) assay, PC-3; assay type: cell-based; conditions: Homo sapiens, PC-3, 48 h, read-out: Cell cytotoxicity assay IC50 PC-3
result-type: IC50 (µM)
Value expressed in µM; do not type the unit.

QUERY: Requested read-out: IC50. Entry: COc1ccc(C=C(CC(C)C)[N+](=O)[O-])cc1
RESULT: 60.1

QUERY: Requested read-out: IC50. Entry: COc1ccc(C=C(Cc2ccccc2)[N+](=O)[O-])cc1
RESULT: 79.6

QUERY: Requested read-out: IC50. Entry: O=[N+]([O-])C(=Cc1ccc(Cl)cc1)Cc1ccccc1
RESULT: 70.7

QUERY: Requested read-out: IC50. Entry: O=[N+]([O-])C(=Cc1ccccc1)CO
RESULT: 29.3

QUERY: Requested read-out: IC50. Entry: O=[N+]([O-])C(=Cc1ccc(Cl)cc1)CO
RESULT: 20.8

QUERY: Requested read-out: IC50. Entry: CN(C)c1ccc(C=C(Cc2ccccc2)[N+](=O)[O-])cc1
RESULT: 332

QUERY: Requested read-out: IC50. Entry: Cc1ccc(C=C(CC(C)C)[N+](=O)[O-])cc1
RESULT: 73.1

QUERY: Requested read-out: IC50. Entry: CC(C)C[C@H](NC(=O)[C@H](Cc1ccccc1)NC(=O)c1cnccn1)B(O)O [Bortezomib, bortezomib, reference compound]
RESULT: 0.26
